Origin of the recorded values: the RNAGym collection of RNA variant scans (doi:10.1002/anie.201605470)

B1: Osa-1-4 twister ribozyme (parent)
chain: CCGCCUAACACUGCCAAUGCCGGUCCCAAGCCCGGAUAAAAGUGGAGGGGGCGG

# Variants of: B1
# EXPERIMENT: self-cleavage, relative activity (ratio to wild type); higher = more cleavage; co-transcriptional
Known self-cleavage of a selection of variants
VALUE TYPE: self-cleavage

C33U U12A; 0.27
G42C U18A; 0.23
C27U C52A; 0.21
C25U U12G; 0.17
C14G G42A; 0.09
C27G G13C; 0.01
A10C C15A; 0.08
A28C A41G; 0.82
A17G G42C; 0.08
A40C C31A; 0.02
G13A G49A; 0.03
A8G G48U; 0.04
A17U A46U; 0.1
C32U G47A; 0.06
A39U C14A; 0.09
A28G G48U; 0.04
A39U A41C; 0.66
C21A G30A; 0.03
A28C G42A; 0.43
A36U G53U; 0.46
C9A G23A; 0.06
A41U C32G; 0.18
A38U C33G; 0.05
A36U U24A; 0.27
A10U G49U; 0.02
A39U C9U; 0.74
A10G G53C; 0.07
A17U G53C; 0.12
A17U C31A; 0.05
G42U G49U; 0.04
A36U G34U; 0.84
A10G G19A; 0.28
A46U G30U; 0.02
C26G G48U; 0.08
G34U G49A; 0.11
